Attribution: PubChem BioAssay (NCI)

Each entry below carries its reported TGI.
Test system: HCT-116 colon
Test Description: NCI tumour cell line growth inhibition, 48 h
Measure: TGI

{"Compound": "CCN(CC)c1ccc(N=C2C=CC(=C(C#N)C#N)c3ccccc32)c(C)c1", "Target Or Test System": "HCT-116 colon", "Observed Result": "5.8 µM"}
{"Compound": "CC(=O)Nc1ccc(OCC(O)CO)cc1 (stereo unspecified)", "Target Or Test System": "HCT-116 colon", "Observed Result": "> 100 µM"}
{"Compound": "COc1cc(C2SC(N)=Nc3c2c(C)nn3C(=O)c2ccc(Cl)cc2)ccc1O (stereo unspecified)", "Target Or Test System": "HCT-116 colon", "Observed Result": "> 10 µM"}
{"Compound": "CCN1C(=O)N(CC)C2C1NN=c1s/c(=C\\c3cnc(C)n3C)c(=O)n12 (stereo unspecified)", "Target Or Test System": "HCT-116 colon", "Observed Result": "> 100 µM"}
{"Compound": "COc1cc2c(cc1OC)C(=O)N1CCCC1C(=O)S2 (stereo unspecified)", "Target Or Test System": "HCT-116 colon", "Observed Result": "> 100 µM"}
{"Compound": "COC(=O)c1c(OC(C)=O)ccc2c1c1cc3ccccc3c(OC(C)=O)c1n2C", "Target Or Test System": "HCT-116 colon", "Observed Result": "74 µM"}
